Published Ki for UniProt:P29274, assembled from different documents, is shown next.
Sequence (P29274 whole entry): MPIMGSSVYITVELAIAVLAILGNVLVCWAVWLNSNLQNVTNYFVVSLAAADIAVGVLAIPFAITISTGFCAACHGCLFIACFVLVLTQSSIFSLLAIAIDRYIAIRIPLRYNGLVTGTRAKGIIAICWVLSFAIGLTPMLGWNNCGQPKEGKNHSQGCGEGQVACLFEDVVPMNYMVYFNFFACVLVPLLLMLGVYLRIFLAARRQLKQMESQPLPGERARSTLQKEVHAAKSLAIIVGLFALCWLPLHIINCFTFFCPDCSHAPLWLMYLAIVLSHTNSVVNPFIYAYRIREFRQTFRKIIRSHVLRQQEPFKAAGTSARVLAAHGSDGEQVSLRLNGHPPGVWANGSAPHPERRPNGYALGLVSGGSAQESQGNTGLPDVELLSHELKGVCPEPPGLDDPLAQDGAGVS
Label yes (1) when Ki is strictly below 2 nM; at or above that, label no (0).

Problem: For the compound `COc1ccccc1CNC(=O)c1cc(-c2ccco2)nc(N)n1` , is Ki under 2 nM? no (0)

Problem: For the compound `COc1cccc(-c2nc(N)c3nc(-c4ccco4)sc3n2)c1` , is Ki under 2 nM? yes (1)

Problem: For the compound `C#CCn1c(=O)c2[nH]c(Cc3c(F)cccc3F)nc2n(Cc2ccco2)c1=O` , is Ki under 2 nM? no (0)

Problem: For the compound `COc1cccc(-c2c(C#N)c(N)nc(SCc3ncc[nH]3)c2C#N)c1` , is Ki under 2 nM? no (0)

Problem: For the compound `Cc1cc(-c2cn3c(=O)n(-c4ccccc4)nc3c(N)n2)cc(C)c1O` , is Ki under 2 nM? no (0)

Problem: For the compound `Clc1nc(-c2nccs2)c2sccc2n1` , is Ki under 2 nM? no (0)
